Answer each item with its documented Ratio.
Species on record: Bos taurus
ASSAY_OVERVIEW: Inhibition of calf thymus topoisomerase 1 relative to Hoechst 33342
Give bare numbers.

- CCc1nc2ccc(-c3nc4cc(-c5ccccc5)ccc4[nH]3)cc2[nH]1: 2
- c1ccc(-c2cccc3[nH]c(-c4ccc5nc[nH]c5c4)nc23)cc1: 10
- COc1ccc(-c2nc3cc([N+](=O)[O-])ccc3[nH]2)cc1: 300

Batch request: Ratio for each of the following compounds.
1. Cc1ccccc1-c1nc2cc(-c3nc4cc(C(N)=O)ccc4[nH]3)ccc2[nH]1
2. CC(C)c1nc2ccc(-c3nc4cc(-c5ccccc5)ccc4[nH]3)cc2[nH]1
3. FC(F)(F)c1nc2ccc(-c3nc4ccc(-c5nc6ccc(-c7ccc(Cl)cc7)cc6[nH]5)cc4[nH]3)cc2[nH]1

1. 100
2. 1
3. 1

Provide reported Ratio for each item, in the same order as listed.
1. c1ccc(-c2cc3nc(-c4ccc5nc(-c6ccc7nc[nH]c7c6)[nH]c5c4)[nH]c3cc2-c2ccccc2)cc1
2. CCCc1ccc2[nH]c(-c3ccc4[nH]c(-c5ccc6[nH]cnc6c5)nc4c3)nc2c1

1: 1; 2: 0.5

* * *

Give measured Ratio for each item. Keep answers brief.
Species: Bos taurus
ASSAY_OVERVIEW: Inhibition of calf thymus topoisomerase 1 relative to Hoechst 33342
Give bare numbers.

- c1ccc2c(c1)ccc1[nH]c(-c3ccc4nc[nH]c4c3)nc12: 2

According to the records, this compound `COc1ccc(-c2nc3cc(C=O)ccc3[nH]2)cc1` displays Ratio of 300

* * *

Species: Bos taurus
ASSAY_OVERVIEW: Inhibition of calf thymus topoisomerase 1 relative to Hoechst 33342
ENDPOINT: Ratio

Below are worked cases with known answers.
- COc1ccc(-c2nc3cc(C(N)=O)ccc3[nH]2)cc1: 3000
- COc1ccc(-c2nc3c([N+](=O)[O-])cccc3[nH]2)cc1: > 300000

Batch: Ratio for all items listed.
1. FC(F)(F)c1nc2ccc(-c3nc4ccc(-c5nc6cc(Br)c(Br)cc6[nH]5)cc4[nH]3)cc2[nH]1
2. COc1ccc2[nH]c(-c3ccc4nc(-c5ccc6nc[nH]c6c5)[nH]c4c3)nc2c1
3. CN1CCN(c2ccc3[nH]c(-c4ccc5[nH]c(-c6cccc7ccccc67)nc5c4)nc3c2)CC1
4. c1ccc2[nH]c(-c3ccc4[nH]c(-c5ccc6[nH]cnc6c5)nc4c3)nc2c1
5. Cc1ccccc1-c1nc2cc(-c3nc4cc(N5CCN(C)CC5)ccc4[nH]3)ccc2[nH]1

1
0.05
20
1.1
10

List reported Ratio for each of these compounds:
1. CN1CCN(c2ccc3[nH]c(-c4ccc5[nH]c(-c6ccc7ccccc7c6)nc5c4)nc3c2)CC1
2. Cc1cccc(-c2nc3cc(-c4nc5cc(C(N)=O)ccc5[nH]4)ccc3[nH]2)c1
3. c1ccc(-c2ccc3[nH]c(-c4ccc5[nH]c(-c6ccc7[nH]cnc7c6)nc5c4)nc3c2)cc1
4. N#Cc1ccc2[nH]c(-c3ccc4[nH]c(-c5ccc6ccccc6c5)nc4c3)nc2c1

1. 10
2. 100
3. 1
4. 10

Hi! Can you tell me Ratio for each of these compounds?
1. c1ccc2cc3[nH]c(-c4ccc5nc[nH]c5c4)nc3cc2c1
2. Oc1nc2ccc(-c3nc4ccc(-c5nc6ccc(Br)cc6[nH]5)cc4[nH]3)cc2[nH]1
3. c1ccc2c(-c3ccc4[nH]c(-c5ccc6[nH]c(-c7ccc8[nH]cnc8c7)nc6c5)nc4c3)cccc2c1
4. NC(=O)c1ccc2[nH]c(-c3ccc4[nH]c(-c5ccccc5)nc4c3)nc2c1
5. c1ccc2cc(-c3ccc4[nH]c(-c5ccc6[nH]c(-c7ccc8[nH]cnc8c7)nc6c5)nc4c3)ccc2c1
6. c1ccc(-c2ccc3[nH]c(-c4ccc5nc(-c6ccccc6)[nH]c5c4)nc3c2)cc1
7. COc1ccc(-c2nc3cc(-c4nc5cc(CCCN(C)C)ccc5[nH]4)ccc3[nH]2)cc1

1: 2000; 2: 1; 3: 10; 4: 10; 5: 10; 6: 40; 7: 2

Field Ratio (entry `c1ccc(-c2ccc3[nH]c(-c4ccc5[nH]c(-c6ccc7[nH]nnc7c6)nc5c4)nc3c2)cc1` ) reads 1

* * *

Task for the reader: assign each of the following compounds its reported Ratio.
Species: Bos taurus
ASSAY_OVERVIEW: Inhibition of calf thymus topoisomerase 1 relative to Hoechst 33342
Numbers only.

* COc1ccc(-c2nc3cc(-c4nc5cc(CN(C)C)ccc5[nH]4)ccc3[nH]2)cc1 | 2.5

Batch of 4 compounds: report Ratio for each.
1. COc1ccc(-c2ccc3[nH]c(-c4ccc5nc[nH]c5c4)nc3c2)cc1
2. COc1ccc(-c2nc3cc(-c4nc5cc(C#N)ccc5[nH]4)ccc3[nH]2)cc1
3. Clc1ccc2[nH]c(-c3ccc4nc(-c5ccc6nc[nH]c6c5)[nH]c4c3)nc2c1
4. NC(=O)c1ccc2[nH]c(-c3ccc4[nH]c(-c5ccc6ccccc6c5)nc4c3)nc2c1

1
3.3
1
100

* * *

Species on record: Bos taurus
ASSAY_OVERVIEW: Inhibition of calf thymus topoisomerase 1 relative to Hoechst 33342
// label = condition met if Ratio is not less than 1, otherwise condition not met

Example results:
• N#Cc1ccc2[nH]c(-c3ccc4[nH]cnc4c3)nc2c1 = condition met
• COc1ccc(-c2nc3cc(C(=O)O)ccc3[nH]2)cc1 = condition met

Say whether `c1cncc(-c2ccc3[nH]c(-c4ccc5[nH]c(-c6ccc7[nH]cnc7c6)nc5c4)nc3c2)c1` shows Ratio of 1 or more.
condition met

Is Ratio for `c1ccc(-c2ccc3[nH]c(-c4ccc5[nH]c(-c6ccc7[nH]ccc7c6)nc5c4)nc3c2)cc1` at or above 1?
condition met

Assess whether reported Ratio for `Oc1ccc2[nH]c(-c3ccc4nc(-c5ccc6nc[nH]c6c5)[nH]c4c3)nc2c1` sits at 1 or higher.
condition not met

Textbook exercise: given the entry `COc1cc2nc(-c3ccc4nc(-c5ccc6nc[nH]c6c5)[nH]c4c3)[nH]c2cc1Br` , state whether its Ratio is greater than or equal to 1.
condition met

* * *

Answer each item with its documented Ratio.
Species on record: Bos taurus
ASSAY_OVERVIEW: Inhibition of calf thymus topoisomerase 1 relative to Hoechst 33342

Value sought for every listed compound: Ratio.
1. COc1ccc(-c2nc3cc(-c4nc5cc(-c6nc7cc(C#N)ccc7[nH]6)ccc5[nH]4)ccc3[nH]2)cc1
2. Clc1ccc(-c2ccc3[nH]c(-c4ccc5nc[nH]c5c4)nc3c2)cc1
3. N#Cc1ccc2[nH]c(-c3ccc4[nH]c(-c5ccc6[nH]cnc6c5)nc4c3)nc2c1
4. COc1ccc(-c2nc3cc(-c4nc5cc(CCN(C)C)ccc5[nH]4)ccc3[nH]2)cc1
5. c1ccc(-c2ccc3[nH]c(-c4ccc5[nH]c(-c6ccc7nccnc7c6)nc5c4)nc3c2)cc1
6. Cc1ccccc1-c1nc2cc(-c3nc4cc(C#N)ccc4[nH]3)ccc2[nH]1
7. COc1ccc(-c2nc3cc(CN)ccc3[nH]2)cc1
8. Nc1ccc2[nH]c(-c3ccc4nc(-c5ccc6nc[nH]c6c5)[nH]c4c3)nc2c1

1: 1000; 2: 4; 3: 0.1; 4: 5; 5: > 100; 6: > 500; 7: > 300000; 8: 1

For every item in the list below, what is its measured Ratio?
1. CN1CCN(c2ccc3[nH]c(-c4ccc5[nH]c(-c6ccccc6)nc5c4)nc3c2)CC1
2. Brc1cc2nc(-c3ccc4nc(-c5ccc6nc[nH]c6c5)[nH]c4c3)[nH]c2cc1Br
3. COc1ccc(-c2nc3cc(CO)ccc3[nH]2)cc1

[1, 1, 30000]

List reported Ratio for each of these compounds:
1. c1ccc(-c2ccc3[nH]c(-c4ccc5nc[nH]c5c4)nc3c2)cc1
2. COc1ccc(-c2nc3cc(-c4nc5cc([N+](=O)[O-])ccc5[nH]4)ccc3[nH]2)cc1
3. c1ccc2cc(-c3ccc4[nH]c(-c5ccc6nc[nH]c6c5)nc4c3)ccc2c1
4. Cc1nc2ccc(-c3nc4cc(-c5ccccc5)ccc4[nH]3)cc2[nH]1
5. O=[N+]([O-])c1ccc2[nH]c(-c3ccc4nc(-c5ccc6nc[nH]c6c5)[nH]c4c3)nc2c1
6. c1ccc2c(-c3ccc4[nH]c(-c5ccc6nc[nH]c6c5)nc4c3)cccc2c1

2
1000
2
4
0.5
4

Record Ratio per entry; entries follow.
1. COc1ccc(-c2nc3cc(-c4nc5cc(OC6CCN(C)CC6)ccc5[nH]4)ccc3[nH]2)cc1
2. c1ccc(-c2ccc3[nH]c(-c4ccc5[nH]c(-c6ccc7cc[nH]c7c6)nc5c4)nc3c2)cc1
3. COc1ccc(-c2nc3ccc(-c4nc5cc(-c6ccccc6)ccc5[nH]4)cc3[nH]2)cc1
4. NC(=O)c1ccc2[nH]c(-c3ccc4[nH]c(-c5cccc6ccccc56)nc4c3)nc2c1
5. Oc1nc2ccc(-c3nc4cc(-c5nc6cc(-c7ccccc7)ccc6[nH]5)ccc4[nH]3)cc2nc1O
6. c1ccc(-c2ccc3[nH]c(-c4ccc5[nH]c(-c6ccc7[nH]cnc7c6)nc5c4)nc3c2)nc1
7. CCCc1nc2ccc(-c3nc4cc(-c5ccccc5)ccc4[nH]3)cc2[nH]1
8. CCCc1nc2ccc(-c3nc4ccc(-c5nc6ccc(Br)cc6[nH]5)cc4[nH]3)cc2[nH]1

1. 2
2. 5
3. 40
4. 20
5. 1
6. 3.3
7. 1
8. 1

Attribution: ChEMBL document CHEMBL1671799
